B1: CPEB3 Ribozyme (parent)
chain: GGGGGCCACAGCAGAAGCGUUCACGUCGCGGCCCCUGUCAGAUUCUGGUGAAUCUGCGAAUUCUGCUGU

- Variants of: B1
- PROTOCOL_SUMMARY: self-cleavage, relative activity (ratio to wild type); higher = more cleavage; co-transcriptional
Kindly return t if reported self-cleavage is no lower than 0.2; return f if it is lower.

Worked examples follow.
INSERT INTO measurements (var, answer_label) VALUES
  ('C18U C32U', 't'),
  ('G19C A40G', 'f'),
  ('C7A C57A', 'f'),
  ('G2U A60U', 'f'),
  ('G31U G37U', 'f'),
  ('A15G U38G', 'f'),
  ('A40C U55A', 't'),
  ('G37A G47U', 't');

Does self-cleavage meet or surpass 0.2 for C18G U21C ?
t

Does self-cleavage meet or surpass 0.2 for G2C G28C ?
f

Does self-cleavage meet or surpass 0.2 for C24G C45U ?
t

Does self-cleavage meet or surpass 0.2 for U20G C22G ?
f

Does self-cleavage meet or surpass 0.2 for G1A G28U ?
f

Does self-cleavage meet or surpass 0.2 for C12U G56A ?
t

Does self-cleavage meet or surpass 0.2 for A51G A52U ?
t

Does self-cleavage meet or surpass 0.2 for C18G C34U ?
f

Does self-cleavage meet or surpass 0.2 for G11C U53A ?
t

Does self-cleavage meet or surpass 0.2 for G31C U49C ?
f

Does self-cleavage meet or surpass 0.2 for C29U A42U ?
t

Does self-cleavage meet or surpass 0.2 for A13G U49A ?
t

Does self-cleavage meet or surpass 0.2 for C6G U26G ?
t

Does self-cleavage meet or surpass 0.2 for G31U U49A ?
t

Does self-cleavage meet or surpass 0.2 for G17A C63G ?
t
